This collection of values is drawn from paper PMC3175016.

tested on: male Fischer 344 rats; test: Liver weight 24 h after a single i.p. dose; assay type: in vivo; conditions: dose 0.6 (head mg/kg; text mmol/kg), i.p. in corn oil, mean ± SE, N = 3–4
Marks after values point to notes of the source that are not given here.
Below: a set of entries, each annotated with reported Liver weight.

Example entries begin here.
O=C1CSC(=O)N1c1ccccc1 = 4.08 ± 0.08^e g/100% BW
O=C1CSC(=O)N1c1cc(C(F)(F)F)cc(C(F)(F)F)c1 = 3.78 ± 0.07^f g/100% BW
O=C1SCCN1c1cc(Cl)cc(Cl)c1 = 3.74 ± 0.11^d g/100% BW
CC1SC(=O)N(c2cc(Cl)cc(Cl)c2)C1=O (centres unmarked) = 4.03 ± 0.27^a g/100% BW
O=C(O)CSC(=O)Nc1cc(Cl)cc(Cl)c1 = 3.46 ± 0.17^b g/100% BW
Cc1cc(C)cc(N2C(=O)CSC2=O)c1 = 4.20 ± 0.05*,^b g/100% BW
O=C1CSC(=O)N1c1ccc(Cl)cc1 = 4.36 ± 0.06*,^d g/100% BW

Please look at the following compound next.
IN: Identify the measured Liver weight of O=C1CSCN1c1cc(Cl)cc(Cl)c1 for male Fischer 344 rats.
OUT: 3.46 ± 0.09^c g/100% BW

###

test system: male Fischer 344 rats; assay: Urine volume after a single i.p. dose; type: in vivo; conditions: dose 0.2 (head mg/kg; text mmol/kg), i.p. in corn oil, mean ± SE, N = 3–4
Marks after values point to notes of the source that are not given here.
test readout: Twenty-four-hour urine volume

CC1SC(=O)N(c2cc(Cl)cc(Cl)c2)C1=O (centres unmarked) = 6.5 ± 2.1^a ml
O=C1CSCN1c1cc(Cl)cc(Cl)c1 = 12.3 ± 1.7*,^c ml
Cc1cc(C)cc(N2C(=O)CSC2=O)c1 = 5.8 ± 1.4*,^a ml

IN: Request the reported Twenty-four-hour urine volume associated with O=C1CSC(=O)N1c1ccccc1
OUT: 6.1 ± 1.7^d ml

IN: Query O=C1CSC(=O)N1c1ccc(Cl)cc1 next
OUT: 5.7 ± 1.5^b ml

IN: Query O=C(O)CSC(=O)Nc1cc(Cl)cc(Cl)c1 next
OUT: 12.5 ± 3.8^b ml

IN: Query O=C1CSC(=O)N1c1cc(C(F)(F)F)cc(C(F)(F)F)c1 next
OUT: 10.1 ± 1.3*,^f ml

IN: Query O=C1SCCN1c1cc(Cl)cc(Cl)c1 next
OUT: 6.0 ± 0.8^d ml

###

system: male Fischer 344 rats; assay: Urine volume after a single i.p. dose; format: in vivo; conditions: dose 0.6 (head mg/kg; text mmol/kg), i.p. in corn oil, mean ± SE, N = 3–4
Marks after values point to notes of the source that are not given here.
test readout: Twenty-four-hour urine volume

O=C1CSCN1c1cc(Cl)cc(Cl)c1 [4-DCTD, 3-(3,5-dichlorophenyl)-4-thiazolidinone] = 9.1 ± 1.6*,^c ml

IN: Identify the measured Twenty-four-hour urine volume of O=C1CSC(=O)N1c1ccccc1 [PTZD, 3-phenyl-2,4-thiazolidinedione] for male Fischer 344 rats.
OUT: 12.5 ± 2.4^d ml

IN: Query O=C(O)CSC(=O)Nc1cc(Cl)cc(Cl)c1 [DCTA] next
OUT: 9.5 ± 5.0^b ml

###

Below: a set of entries, each annotated with reported Six-hour urine protein content.
tested on: male Fischer 344 rats; assay: Six-hour urine protein content after a single i.p. dose; type: in vivo; details: dose 0.6 (head mg/kg; text mmol/kg), i.p. in corn oil, mean ± SE, N = 3–4
Marks after values point to notes of the source that are not given here.

Example entries begin here.
O=C1SCCN1c1cc(Cl)cc(Cl)c1 = 2.2 ± 0.1^d mg
O=C1CSC(=O)N1c1cc(C(F)(F)F)cc(C(F)(F)F)c1 = 1.5 ± 0.2^e mg
Cc1cc(C)cc(N2C(=O)CSC2=O)c1 = 1.9 ± 0.2^a mg
O=C1CSC(=O)N1c1ccccc1 = 3.4 ± 0.9^d mg

IN: Request the reported Six-hour urine protein content associated with CC1SC(=O)N(c2cc(Cl)cc(Cl)c2)C1=O (centres unmarked)
OUT: 2.6 ± 0.8^a mg

###

system: male Fischer 344 rats; assay: Six-hour urine protein content after a single i.p. dose; format: in vivo; details: dose 0.4 (head mg/kg; text mmol/kg), i.p. in corn oil, mean ± SE, N = 3–4
Marks after values point to notes of the source that are not given here.
Below: a set of entries, each annotated with reported Six-hour urine protein content.

Example entries begin here.
O=C1CSC(=O)N1c1ccccc1 = 2.1 ± 0.2^d mg
O=C(O)CSC(=O)Nc1cc(Cl)cc(Cl)c1 = 2.5 ± 0.4^b mg
O=C1CSC(=O)N1c1ccc(Cl)cc1 = 1.9 ± 0.1^c mg
Cc1cc(C)cc(N2C(=O)CSC2=O)c1 = 1.4 ± 0.1^a mg
CC1SC(=O)N(c2cc(Cl)cc(Cl)c2)C1=O (centres unmarked) = 1.6 ± 0.1^a mg
O=C1CSCN1c1cc(Cl)cc(Cl)c1 = 1.6 ± 0.2^c mg
O=C1CSC(=O)N1c1cc(C(F)(F)F)cc(C(F)(F)F)c1 = 1.6 ± 0.2^e mg

Please look at the following compound next.
IN: Request the reported Six-hour urine protein content associated with O=C1SCCN1c1cc(Cl)cc(Cl)c1
OUT: 1.8 ± 0.1^d mg

###

test system: male Fischer 344 rats; assay: Kidney weight 24 h after a single i.p. dose; assay type: in vivo; conditions: dose 0.4 (head mg/kg; text mmol/kg), i.p. in corn oil, mean ± SE, N = 3–4
Marks after values point to notes of the source that are not given here.
test readout: Kidney weight

O=C1CSC(=O)N1c1ccccc1 = 0.40 ± 0.00*,^e g/ 100% BW
O=C1CSC(=O)N1c1cc(C(F)(F)F)cc(C(F)(F)F)c1 = 0.42 ± 0.03^g g/ 100% BW
CC1SC(=O)N(c2cc(Cl)cc(Cl)c2)C1=O (centres unmarked) = 0.38 ± 0.01^a g/ 100% BW
O=C(O)CSC(=O)Nc1cc(Cl)cc(Cl)c1 = 0.43 ± 0.01 *,^b,^c g/ 100% BW

IN: Request the reported Kidney weight associated with O=C1SCCN1c1cc(Cl)cc(Cl)c1
OUT: 0.38 ± 0.01^e g/ 100% BW

IN: Query Cc1cc(C)cc(N2C(=O)CSC2=O)c1 next
OUT: 0.40 ± 0.02^a g/ 100% BW

IN: Query O=C1CSCN1c1cc(Cl)cc(Cl)c1 next
OUT: 0.37 ± 0.01^d g/ 100% BW

IN: Query O=C1CSC(=O)N1c1ccc(Cl)cc1 next
OUT: 0.41 ± 0.01^b g/ 100% BW

###

system: male Fischer 344 rats; assay: Kidney weight 24 h after a single i.p. dose; assay type: in vivo; conditions: dose 0.6 (head mg/kg; text mmol/kg), i.p. in corn oil, mean ± SE, N = 3–4
Marks after values point to notes of the source that are not given here.
test readout: Kidney weight

Example entries begin here.
O=C1SCCN1c1cc(Cl)cc(Cl)c1 [2-DCTD, 3-(3,5-dichlorophenyl)-2-thiazolidinone] = 0.40 ± 0.01^e g/ 100% BW
O=C(O)CSC(=O)Nc1cc(Cl)cc(Cl)c1 [DCTA] = 0.45 ± 0.01 *,^c g/ 100% BW
Cc1cc(C)cc(N2C(=O)CSC2=O)c1 [DMPT] = 0.39 ± 0.00^a g/ 100% BW

IN: Request the reported Kidney weight associated with CC1SC(=O)N(c2cc(Cl)cc(Cl)c2)C1=O (stereo not shown) [DPMT]
OUT: 0.39 ± 0.01^a g/ 100% BW

###

test system: male Fischer 344 rats; test: Six-hour urine protein content after a single i.p. dose; assay type: in vivo; conditions: dose 0.2 (head mg/kg; text mmol/kg), i.p. in corn oil, mean ± SE, N = 3–4
Marks after values point to notes of the source that are not given here.
test readout: Six-hour urine protein content

Example entries begin here.
O=C1SCCN1c1cc(Cl)cc(Cl)c1 = 1.6 ± 0.4^d mg
O=C1CSC(=O)N1c1ccc(Cl)cc1 = 2.0 ± 0.1^c mg
Cc1cc(C)cc(N2C(=O)CSC2=O)c1 = 0.8 ± 0.3^a mg
O=C1CSCN1c1cc(Cl)cc(Cl)c1 = 1.8 ± 0.3^c mg

Please look at the following compound next.
IN: Request the reported Six-hour urine protein content associated with O=C(O)CSC(=O)Nc1cc(Cl)cc(Cl)c1
OUT: 2.9 ± 0.9^b mg

###

Below: a set of entries, each annotated with reported Kidney weight.
system: male Fischer 344 rats; test: Kidney weight 24 h after a single i.p. dose; assay type: in vivo; conditions: dose 1.0 (head mg/kg; text mmol/kg), i.p. in corn oil, mean ± SE, N = 3–4
Marks after values point to notes of the source that are not given here.

CC1SC(=O)N(c2cc(Cl)cc(Cl)c2)C1=O (stereo not shown) [DPMT] = 0.41 ± 0.01^a g/ 100% BW
Cc1cc(C)cc(N2C(=O)CSC2=O)c1 [DMPT] = 0.38 ± 0.01^a g/ 100% BW
O=C1CSC(=O)N1c1ccc(Cl)cc1 [CPTD, 3-(4-chlorophenyl)-2,4-thiazolidinedione] = 0.51 ± 0.04*,^c g/ 100% BW

Please look at the following molecule next.
IN: Request the reported Kidney weight associated with O=C1SCCN1c1cc(Cl)cc(Cl)c1 [2-DCTD, 3-(3,5-dichlorophenyl)-2-thiazolidinone]
OUT: 0.37 ± 0.01^e g/ 100% BW
